- Test system: DIO1 (gene 1733)
- assay-summary: CCTE_GLTED_hDIO1: CCTE's human Deiodinase 1 (DIO1) Inhibition Assay, Great Lakes Toxicology and Ecology Division (GLTED) Lab (AID 2283987);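 also: isolated human DIO1 enzyme in a cell-free setup rather than cells; enzyme activity read as free iodide liberated from substrate via Sandell-Kolthoff colorimetry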
Inconclusive results are not listed. The source made the active and inactive calls. The calls were made as follows: active = hit-call score of the fitted dose curve at least 0.9, where 1 is the maximum; inconclusive = response in the unintended direction; inactive = score below 0.9.
Return exactly one item of Y for active, N for inactive

Solved cases below.
> print(dat)
                                   molecule  qualitative.label
1  C=CC(=O)OCC(F)(F)C(F)(F)C(F)(F)C(F)(F)COC(=O)C=C                  Y
2  O=C(O)C(F)(F)C(F)(F)C(F)(F)C(F)(F)C(F)(F)C(F)(F)C(F)(F)C(F)(F)C(F)(F)C(F)(F)C(F)(F)C(F)(F)F                  Y
3  O=C(O)C(F)(F)C(F)(F)C(F)(F)C(F)(F)C(F)(F)C(F)(F)C(F)(F)C(F)(F)Cl                  N
4  CC(Cc1ccc(O)c(O)c1)C(C)Cc1ccc(O)c(O)c1 (configuration not stated)                  Y
5  O=C(O)C(F)(F)C(F)(F)C(F)(F)C(F)(F)C(F)(F)C(F)(F)C(F)(F)C(F)(F)C(F)(F)C(F)(F)C(F)(F)C(F)(F)C(F)(F)F                  Y

Look up the recorded call for O=C(O)C=C(C(F)(F)F)C(F)(F)F in this test.
Y

# lookup: test call for CCN(Cc1cccc(S(=O)(=O)O)c1)c1ccc(C(=C2C=CC(=[N+](CC)Cc3cccc(S(=O)(=O)O)c3)C=C2)c2ccc(O)cc2S(=O)(=O)[O-])cc1
Y
